target: EmCV Cap-dependent translation; experiment: In vitro translation assay, FF-EmCV-Ren construct, cap-dependent (FF luciferase)
Measured Attribute: IC50

Summary for this compound, COc1ccnc(/C=C/C(=O)c2c(-c3ccccc3)c3cc(Cl)ccc3[nH]c2=O)c1 [Compound 75] : IC50 is 2 to 10 µM

Summary for this compound, O=C(/C=C/c1cncc(F)c1)c1c(-c2cncc(F)c2)c2cc(Cl)ccc2[nH]c1=O [Compound 99] : IC50 is 10 to 20 µM

Summary for this compound, O=C(/C=C/c1nc2ccccc2n1Cc1ccccc1)c1c(-c2ccccc2)c2cc(Cl)ccc2n(Cc2ccccc2)c1=O [Compound 56] : IC50 is 2 to 10 µM

Summary for this compound, O=C(/C=C/c1cncc(F)c1)c1c(-c2cncc(Br)c2)c2cc(Cl)ccc2[nH]c1=O [Compound 103] : IC50 is 2 to 10 µM

Summary for this compound, Nc1ccc2[nH]c(=O)c(C(=O)CCc3nc4ccccc4[nH]3)c(-c3ccccc3)c2c1 [Compound 14] : IC50 is > 20 µM

Summary for this compound, Cc1cncc(/C=C/C(=O)c2c(-c3ccccc3)c3cc(Cl)ccc3[nH]c2=O)c1 [Compound 74] : IC50 is 2 to 10 µM

Summary for this compound, O=C(/C=C/c1nc2cc(Cl)c(Cl)cc2[nH]1)c1c(-c2ccccc2)c2cc(Cl)ccc2[nH]c1=O [Compound 63] : IC50 is 2 to 10 µM

Summary for this compound, Cn1ccc2cc(/C=C/C(=O)c3c(-c4ccccc4)c4cc(Cl)ccc4[nH]c3=O)ccc21 [Compound 30] : IC50 is > 20 µM

Summary for this compound, CCOC(=O)c1cncc(-c2c(C(=O)/C=C/c3ccccn3)c(=O)[nH]c3ccc(Cl)cc23)c1 [Compound 107] : IC50 is > 20 µM

Summary for this compound, N#Cc1ccc(-c2c(C(=O)/C=C/c3ccccn3)c(=O)[nH]c3ccc(Cl)cc23)cc1 [Compound 90] : IC50 is 2 to 10 µM

Summary for this compound, O=C(/C=C/c1nc2ccccc2[nH]1)c1c(-c2ccccn2)c2cc(Cl)ccc2[nH]c1=O [Compound 8] : IC50 is > 20 µM

Summary for this compound, O=C(/C=C/c1ccccc1)c1c(-c2ccccc2)c2cc(Cl)ccc2[nH]c1=O [Compound 31] : IC50 is 2 to 10 µM

Summary for this compound, O=C(/C=C/c1cccs1)c1c(-c2ccccc2)c2cc(Cl)ccc2[nH]c1=O [Compound 51] : IC50 is > 20 µM

Summary for this compound, O=C(/C=C/c1cncnc1)c1c(-c2ccccc2)c2cc(Cl)ccc2[nH]c1=O [Compound 37] : IC50 is 2 to 10 µM

Summary for this compound, O=C(/C=C/c1ccccc1)c1c(C2CCCCC2)c2cc(Cl)ccc2[nH]c1=O [Compound 12] : IC50 is 2 to 10 µM
